- Tested on: TNFα
- METHOD: Cot Monocyte TNFα Cell Based Assay
- TEST CONTEXT: Homo sapiens, Monocyte, read-out: EC50 TNF, LPS-stimulated human monocytes, TNFα
MEASUREMENT NAME: log10(EC50) (log10 of the value in nM)
Plainly stated, the numbers are log10 of EC50 given in nM.

- COMPOUND: "[2H]C([2H])([2H])C([2H])([2H])[C@@]([2H])(Nc1c(C#N)cnc2c(Cl)cc(N[C@@]([2H])(c3ccc(F)nc3)c3cn(C4CC4)nn3)cc12)c1ccccc1 [Example 109]"
  MEASUREMENT NAME: "log10(EC50)"
  RECORDED RESULT: 1.73

Find log10(EC50) (TNFα) for the entry CC(C)(C)N1CCC(n2cc([C@@H](Nc3cc(Cl)c4ncc(C#N)c(Nc5ccc(F)c(Cl)c5)c4c3)c3ccc4c(c3)CNC4)nn2)CC1 [Example 57] 3.78

Hi! What's the reported log10(EC50) for N#Cc1cnc2c(Cl)cc(N[C@@H](c3cscn3)c3c[nH]nn3)cc2c1Nc1ccc(F)c(Cl)c1 [Example 276] on TNFα? 2.90

Which measured log10(EC50) belongs to COc1cc(N[C@H](c2cn(C3(C(F)(F)F)CC3)nn2)c2ccc(F)nc2C)cc2c(NCC(C)(C)C)c(C#N)cnc12 [Example 595] , tested on TNFα? 3.00

Recorded log10(EC50) for Cc1nc(F)ccc1[C@H](Nc1cc(Cl)c2ncc(C#N)c(NCC(C)(C)C)c2c1)c1cn(C2(C)CC2)nn1 [Example 480] with TNFα, please? 1.78

Enter reported log10(EC50) observed with TNFα for CC(C)(C)N1CCC(n2cc([C@@H](Nc3cc(Cl)c4ncc(C#N)c(Nc5ccc(F)c(Cl)c5)c4c3)c3csc4ccc(Cl)cc34)nn2)CC1 [Example 349] 2.86

====

- TEST SYSTEM: Human Cot (Homo sapiens (Human), UniProt P41279)
- Sequence (P41279 30-397): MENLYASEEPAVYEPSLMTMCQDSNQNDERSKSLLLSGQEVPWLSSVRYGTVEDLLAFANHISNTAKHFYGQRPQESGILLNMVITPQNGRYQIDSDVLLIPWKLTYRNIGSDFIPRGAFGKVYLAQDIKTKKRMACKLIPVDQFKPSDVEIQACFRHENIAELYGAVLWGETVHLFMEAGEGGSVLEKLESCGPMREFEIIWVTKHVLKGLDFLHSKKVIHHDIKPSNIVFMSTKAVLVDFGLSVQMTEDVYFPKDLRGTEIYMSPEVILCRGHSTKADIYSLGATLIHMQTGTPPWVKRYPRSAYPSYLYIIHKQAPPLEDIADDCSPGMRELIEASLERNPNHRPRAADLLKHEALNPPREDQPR
- METHOD: High Throughput Cot Biochemical Assay
- TEST CONTEXT: read-out: IC50 HTRF; Cot HTRF (TR-FRET KinEASE) biochemical assay, 400 μM ATP
MEASUREMENT NAME: pIC50
Remember, pIC50 is on a log scale: it is -log10 of the molar concentration.

- STRUCTURE NOTATION: "COc1nccc2c([C@H](Nc3cc(C#N)c4ncc(C#N)c(NCC(C)(C)C)c4c3)c3cn(C4(C(F)(F)F)CC4)nn3)cccc12"
  pIC50: 8.30

Find the recorded pIC50 belonging to COc1nccc2c([C@H](Nc3cc(C#N)c4ncc(C#N)c(NCC(C)(C)C)c4c3)c3cn([C@@H](C)CF)nn3)cccc12 and report it. 8.30

I would be grateful if you could share the reported pIC50 for COc1nccc2c([C@H](Nc3cc(C#N)c4ncc(C#N)c(NCC(C)(C)C(F)(F)F)c4c3)c3cn(C4(C)CC4)nn3)cccc12 . 8.70

====

- TEST SYSTEM: Human Cot (Homo sapiens (Human))
- METHOD: High Throughput Cot Biochemical Assay
- TEST CONTEXT: IC50 HTRF, Cot HTRF (TR-FRET) biochemical assay
pIC50 for assorted compounds
As a rule, pIC50 stands for the negative log10 of the concentration, concentration in M.

- COMPOUND: "CC(C)(C)N1CCC(n2cc([C@@H](Nc3cc(Cl)c4ncc(C#N)c(Nc5ccc(F)c(Cl)c5)c4c3)c3csc4ccccc34)nn2)CC1"
  pIC50: 8.00
- COMPOUND: "[2H]C(Nc1cc(Cl)c2ncc(C#N)c(NCC(C)(C)C)c2c1)(c1cn(C2CC2)nn1)c1cccnc1Cl (stereo not shown)"
  pIC50: 8.52
- COMPOUND: "CC(C)(C)CNc1c(C#N)cnc2c(Cl)cc(N[C@H](c3cn(C4(C)CC4)nn3)c3cccc4ncccc34)cc12"
  pIC50: 8.30

// fetch Human Cot (Homo sapiens (Human)) pIC50 for Cc1nc(F)ccc1[C@H](Nc1cc(Cl)c2ncc(C#N)c(NCC(C)(C)C)c2c1)c1cn(C(CF)CF)nn1 8.52

# value lookup — system Human Cot (Homo sapiens (Human)), readout pIC50, item N#Cc1cnc2c(Cl)cc(NC(c3cccnc3)c3cn([C@@H]4CCNC4)nn3)cc2c1Nc1ccc(F)c(Cl)c1 (stereo partly shown) 8.00

Given the entry [2H]C(Nc1cc(Cl)c2ncc(C#N)c(N[C@H](CC)c3ccccc3)c2c1)(c1cn(C2CC2)nn1)c1cc(C#N)cs1 (stereo partly shown) , what pIC50 was observed with Human Cot (Homo sapiens (Human))? 8.22

Please provide the recorded pIC50 for CC(C)(C)CNc1c(C#N)cnc2c(C#N)cc(N[C@H](c3cn(C4(C(F)F)CC4)nn3)c3cccc4ncccc34)cc12 , tested on Human Cot (Homo sapiens (Human)). 8.70

Form field: pIC50 recorded for CC(C)(C)CNc1c(C#N)cnc2c(Cl)cc(N[C@H](c3cn(C4(C(N)=O)CC4)nn3)c3cccc4ncccc34)cc12 with Human Cot (Homo sapiens (Human)) (enter value) 8.70

Hi! What's the reported pIC50 for Cc1nc(F)ccc1[C@H](Nc1cc(Cl)c2ncc(C#N)c(NCC3(C(F)(F)F)CCC3)c2c1)c1cn(C2(C(F)F)CC2)nn1 on Human Cot (Homo sapiens (Human))? 7.96

Query the reported pIC50 for Human Cot (Homo sapiens (Human)); item: CC(C)(C)CNc1c(C#N)cnc2c(Cl)cc(N[C@H](c3cn(C4CC4)nn3)c3cccc4ncccc34)cc12 8.70

Form entry - test system: Human Cot (Homo sapiens (Human)); read-out: pIC50; compound: Cn1nccc1[C@H](Nc1cc(C#N)c2ncc(C#N)c(NCC(C)(C)C)c2c1)c1cn(C2(C(F)(F)F)CC2)nn1 8.30

Lab request: please report pIC50 under test system Human Cot (Homo sapiens (Human)) for CC1(C)COCC[C@H]1Nc1c(C#N)cnc2c(C#N)cc(N[C@H](c3cn(C4(C(F)(F)F)CC4)nn3)c3cccc4ncsc34)cc12 8.70

Provide value of pIC50 for this record tested with Human Cot (Homo sapiens (Human)): Cc1nc(F)ccc1[C@H](Nc1cc(Cl)c2ncc(C#N)c(NCC(C)(C)C)c2c1)c1nnn(C2(C(F)F)CC2)c1I 7.80
